- System: Escherichia Coli MC 4100
- run_description: MIC broth microdilution, E. coli MC 4100 (wild type)
- Type: cell-based
- conditions: E. coli MC 4100
reported_endpoint: MIC (μg/ml) Broth microdilution (µg/mL)
Numbers only; they are read as µg/mL.

CSCCC(NC(=O)NC(Cc1c[nH]c2ccccc12)C(=O)O)C(=O)NC(C(=O)NCC1CC(O)C(n2ccc(=O)[nH]c2=O)O1)C(C)N(C)C(=O)C(C)N (stereo not shown): 512

Now, please, on to the next compound.
Notebook: pull reported MIC (μg/ml) Broth microdilution for Escherichia Coli MC 4100, entry `CC(C)C[C@H](NC(=O)N[C@@H](Cc1c[nH]c2ccccc12)C(=O)O)C(=O)N[C@H](C(=O)NC[C@H]1C[C@@H](O)[C@H](n2ccc(=O)[nH]c2=O)O1)[C@H](C)N(C)C(=O)CN`
128
